Each recorded value in this set is attributed to paper PMC9482650.

target-under-test: T1, GRIP1_3, Q9Y3R0
T1 sequence (Q9Y3R0 247-346, limits assumed, looked up): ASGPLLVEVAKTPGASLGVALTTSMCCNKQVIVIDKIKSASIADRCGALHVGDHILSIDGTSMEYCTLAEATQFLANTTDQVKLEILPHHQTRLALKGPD
protocol-description: holdup assay
Set-up: key: below the threshold = too weak to quantify, mostly under pKd 3.1 to 4
test-settings: plain residues with an end cap or a label only (N-terminal biotin on a linker: ttds)
value-kind: pKd

| binder | pKd |
| --- | --- |
| ERKLSSESQV [LRP4, O75096] | below the threshold |
| SVWLRKETRV [CYSLTR2, Q9NS75] | below the threshold |
| GQDSREETQL [KCNT2, Q6UVM3] | below the threshold |
| STLTIFETAL [ABCC4, O15439] | below the threshold |

Now turn to the next binder.
The reported pKd of the binder PKTPPTDTSV [KIR3DL3, Q8N743] was below the threshold
